These entries and their values trace back to PubChem BioAssay (NCI).

- Test system: T-47D breast
- Method: NCI tumour cell line growth inhibition, 48 h
Would you kindly list TGI for each of these compounds?

- COc1cc2c(c(O)c1OC)C(=O)[C@@H]1CCC(=O)N1C2: > 100 µM
- CC1=NC(=Cc2ccccc2O)C(=O)N1n1c(-c2ccccc2)nc2ccccc2c1=O: > 100 µM
- COc1ccc(N(CC(=O)NCCC[Te]c2ccccc2)C(=O)CNC(=O)OC(C)(C)C)cc1: 40.9 µM
- CC1=NN(c2nc(N)nc(/C(C#N)=C\c3csc([N+](=O)[O-])c3)n2)C(C)(C)C1: 56.9 µM
- COC(=O)c1ccc2c(c1)S/C(=C/c1ccc3ccc4cccc5ccc1c3c45)S2: > 100 µM

Batch: TGI for all items listed.
1. c1ccc(CCc2cccnc2)nc1
2. NC(=O)C(=CNC(=S)Nc1ccccc1)C(N)=O
3. Oc1c(I)cc(I)c2cccnc12
4. N#CCN1CCn2c1nsc2=S
5. Oc1ccc2cc(Br)ccc2c1-c1c(O)ccc2ccc(Br)cc12
6. COC(=O)[C@H]1CCCN1C(=O)[C@H]1CCCN1C(=O)[C@@H](Cc1c[nH]c2ccccc12)NC(=S)Nc1cc(C(F)(F)F)cc(C(F)(F)F)c1
7. NS(=O)(=O)c1ccc(-c2cc3ccncc3cc2OCc2ccccc2)cc1
8. COC1C(N)C(OC2C(Oc3cccc4c(O)c5c(=O)oc6ccc(C)c7c(=O)oc(c34)c5c67)OC(C)C(O)C2(C)O)OC(C)C1O (stereo unspecified)

1. > 100 µM
2. > 100 µM
3. 15.6 µM
4. > 100 µM
5. 25.3 µM
6. 16.4 µM
7. > 25 µM
8. 1.43 µM

----------
- Test system: NCI-H522 lung
- Method: NCI tumour cell line growth inhibition, 48 h
Endpoint: GI50

* COC(=O)CCCCC(=O)c1c(C)[nH]c(/C=C2\N=C(c3ccc[nH]3)C=C2OC)c1C | 673 nM

Dear colleague, could you please provide GI50 for the compounds listed below?
1. c1ccc(-c2nc(N3CCNCC3)c3oc(-c4ccccc4)nc3n2)cc1
2. CCc1cccc(C)c1NC(=O)c1sc2nc3c(cc2c1N)C(=O)CCC3

1: 1990 nM; 2: 234 nM

State recorded GI50 for all listed compounds.
1. O=C(CC1(O)C(=O)N(Cc2ccccc2)c2ccccc21)c1ccc(C(=O)NCC2CCC3(CC2)OOC2(CCCCC2)OO3)cc1 (stereo not drawn)
2. Oc1cccc2ccc(N/N=C/c3cc(CN4CCOCC4)c(O)c4ncccc34)nc12
3. COC1C(O)C(CO)OC(OC2C(O)COC(OC3C(C)OC(OC4C(O[C@H]5CC[C@@]6(C)C(CC=C7[C@H]6CCC68C(=O)O[C@@](C)(CCCC(C)C)[C@H]6[C@@H](OC(C)=O)C[C@@]78C)C5(C)C)OCC(OS(=O)(=O)O)C4O)C(OC4OCC(O)C(O)C4O)C3O)C2O)C1O (stereo partly drawn)
4. COc1ncnc(NS(=O)(=O)c2ccc(N=C3C(=O)N(CN4CCN(c5c(F)cc6c(=O)c(C(=O)O)cn(C7CC7)c6c5OC)CC4C)c4ccc(Br)cc43)cc2)c1OC (stereo not drawn)
5. COC(=O)c1cncc(/C=C/c2c(C)cc(O)cc2C)c1

1: 240 nM; 2: < 16.5 nM; 3: 194 nM; 4: 31000 nM; 5: 5670 nM
